# measured.on: human ether-à-go-go-related gene (hERG) potassium channel (human, UniProt Q12809)
# Sequence (Q12809 whole entry, looked up): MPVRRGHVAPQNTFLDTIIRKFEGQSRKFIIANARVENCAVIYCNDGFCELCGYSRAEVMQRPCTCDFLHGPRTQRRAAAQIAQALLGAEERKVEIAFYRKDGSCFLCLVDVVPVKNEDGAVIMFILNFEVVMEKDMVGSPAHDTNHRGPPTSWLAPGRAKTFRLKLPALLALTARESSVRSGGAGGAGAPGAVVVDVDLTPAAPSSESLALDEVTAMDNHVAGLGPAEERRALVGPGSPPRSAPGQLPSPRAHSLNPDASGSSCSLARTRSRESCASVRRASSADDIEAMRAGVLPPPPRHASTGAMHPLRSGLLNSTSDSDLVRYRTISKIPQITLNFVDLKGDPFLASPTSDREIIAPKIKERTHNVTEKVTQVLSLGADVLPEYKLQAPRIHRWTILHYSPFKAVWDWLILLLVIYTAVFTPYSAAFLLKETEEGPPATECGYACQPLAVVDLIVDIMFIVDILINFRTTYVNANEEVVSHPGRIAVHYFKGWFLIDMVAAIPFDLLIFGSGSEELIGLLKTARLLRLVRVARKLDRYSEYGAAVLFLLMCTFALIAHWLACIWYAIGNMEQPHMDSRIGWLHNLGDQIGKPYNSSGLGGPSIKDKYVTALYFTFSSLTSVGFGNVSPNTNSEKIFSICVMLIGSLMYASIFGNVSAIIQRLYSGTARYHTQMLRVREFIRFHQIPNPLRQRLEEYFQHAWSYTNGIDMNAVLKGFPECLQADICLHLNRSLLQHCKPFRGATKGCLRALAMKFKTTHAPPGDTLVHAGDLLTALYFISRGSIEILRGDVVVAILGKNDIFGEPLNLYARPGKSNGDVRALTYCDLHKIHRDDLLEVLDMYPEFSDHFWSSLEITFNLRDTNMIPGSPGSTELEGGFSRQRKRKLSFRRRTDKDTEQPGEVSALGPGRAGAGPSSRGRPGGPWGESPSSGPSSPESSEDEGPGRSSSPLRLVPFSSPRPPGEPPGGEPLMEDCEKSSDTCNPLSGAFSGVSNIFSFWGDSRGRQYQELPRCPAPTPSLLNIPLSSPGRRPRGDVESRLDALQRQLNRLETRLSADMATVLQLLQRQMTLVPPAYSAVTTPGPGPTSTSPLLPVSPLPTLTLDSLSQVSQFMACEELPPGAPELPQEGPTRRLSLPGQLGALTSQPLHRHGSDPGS
# run.description: primary screen, population patch clamp on CHO cells stably expressing hERG; higher = less effect of the substance;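 further: peak tail current of the secondary pulse compared with the same well before compound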
The whole screen tested about 310,000 compounds, of which about 14,000 (4.5%) showed an effect of 50% or more. The effect is printed as a negative number. The entries come from a sample that favours strong results as a whole.
Decision: hERG current change (%, negative = inhibition) at 10uM >= -20% yields yes (1), all other cases yield no (0).

Has `Cn1c(SCc2ccc([N+](=O)[O-])cc2)nc2c(c1=O)SCC2` a recorded hERG current change (%, negative = inhibition) at 10uM greater than or equal to -20%?
no (0)

Continuing:
Has `CCNS(=O)(=O)c1ccc(CCC(=O)N2CCN(c3ccc(OC)cc3)CC2)cc1` a recorded hERG current change (%, negative = inhibition) at 10uM greater than or equal to -20%?
yes (1)

And then `Cn1c(SCC(=O)Nc2ccc(F)cc2)nc2c(c1=O)SCC2` , what is it?
yes (1)

And then `COc1ccc(N2CCN(C(=O)CCNS(=O)(=O)c3cccs3)CC2)cc1` , what is it?
no (0)

And then `Cc1ccc(C(=O)CSc2nc(N)cc(=O)[nH]2)cc1` , what is it?
yes (1)

And then `COc1ccc(NC(=O)N2C[C@@H]3C[C@@H](C2)c2cccc(=O)n2C3)cc1` , what is it?
yes (1)

And then `Cn1c(SCc2ccc(Br)cc2)nc2c(c1=O)SCC2` , what is it?
yes (1)

And then `CC(C)CNS(=O)(=O)c1ccc(CCC(=O)N2CCN(c3ccccc3)CC2)cc1` , what is it?
no (0)

----------
In this section we review reported hERG current change (%, negative = inhibition) at 10uM values for a set of compounds.
# measured.on: human ether-à-go-go-related gene (hERG) potassium channel (human, UniProt Q12809)
# run.description: primary screen, population patch clamp on CHO cells stably expressing hERG; higher = less effect of the substance
About 14,000 (4.5%) of roughly 310,000 compounds showed an effect of 50% or more. The effect is printed as a negative number. Shown is part of a subset that was picked to be rich in strong results.
Give just the numeric value; % need not be written.

Examples with answers:
Requested field: hERG current change (%, negative = inhibition) at 10uM. Item: `O=C(Cc1ccc(Br)cc1)N1CCN(C(=O)c2ccccc2)CC1`
-30.1

And then `O=C(C[n+]1cnn(CC(=O)c2ccc(Cl)cc2Cl)c1)c1ccc([N+](=O)[O-])cc1.[Br-]` , what is it?
-73.3

And then `O=C(Cn1nc(Cl)nc1Cl)c1ccc([N+](=O)[O-])cc1` , what is it?
1.69

Proceeding to the next compound to report its hERG current change (%, negative = inhibition) at 10uM.
Requested field: hERG current change (%, negative = inhibition) at 10uM. Item: `CC(C)C(=O)NNC(=O)c1c(O)c2ccccc2[nH]c1=O`
10.3

----------
# measured.on: human ether-à-go-go-related gene (hERG) potassium channel (human, UniProt Q12809)
# run.description: primary screen, population patch clamp on CHO cells stably expressing hERG; higher = less effect of the substance
In all, about 310,000 compounds went through this assay and about 14,000 (4.5%) showed an effect of 50% or more. The effect is printed as a negative number. Shown is part of a subset that was picked to be rich in strong results.
value.kind: hERG current change (%, negative = inhibition) at 10uM (%)
Give just the numeric value; % need not be written.

Requested field: hERG current change (%, negative = inhibition) at 10uM. Item: `O=C(COC(=O)c1ccccc1F)Nc1cccnc1Cl`
-2.16

And then `CCCNC(=O)c1cccc(NC(=O)C(C)C)c1` , what is it?
-25.4

And then Cc1ccc(-n2ncc3c2CC(C)(C)CC3NC(=O)c2ccncc2)cc1 (stereo not shown) , what is it?
-72.2

And then Cc1ccccc1-n1ncc2c1CC(C)(C)CC2NC(=O)c1ccncc1 (stereo not shown) , what is it?
-47.4

Continuing:
Requested field: hERG current change (%, negative = inhibition) at 10uM. Item: COCCNC(=O)C(c1cccc(OC)c1)N(C(=O)Cn1nnc2ccccc21)c1cccnc1 (stereo not shown)
7.66

And then `Cc1cc(C)c(CN2CCC(CO)(CCOc3ccccc3)CC2)cc1C` , what is it?
-65.2

And then `CN=C1C=C/C(=N/N=c2\ccn(O)cc2C)C=C1C` , what is it?
-32.6

----------
# measured.on: human ether-à-go-go-related gene (hERG) potassium channel (human)
# run.description: primary screen, population patch clamp on CHO cells stably expressing hERG; higher = less effect of the substance
Out of some 310,000 compounds screened, about 14,000 (4.5%) showed an effect of 50% or more. The effect is printed as a negative number. This excerpt belongs to a sample that is enriched for strong results.
Decision: hERG current change (%, negative = inhibition) at 10uM >= -40% yields 1.0, all other cases yield 0.0.

Has `CCOC(=O)N1CCN(C(=O)CN(Cc2ccc(Cl)cc2)S(=O)(=O)c2ccc(C)cc2)CC1` a recorded hERG current change (%, negative = inhibition) at 10uM greater than or equal to -40%?
0.0

Continuing:
Has `O=C(Nc1cccc(Cl)c1Cl)c1snnc1-c1ccccc1` a recorded hERG current change (%, negative = inhibition) at 10uM greater than or equal to -40%?
1.0

And then `COc1ccc(CNC(=O)CN(Cc2ccc(Cl)cc2)S(C)(=O)=O)cc1` , what is it?
0.0

And then `CN(Cc1nc2ccc(F)cc2[nH]1)Cc1c(C(=O)N(C)C)nc2ccc(Cl)cn12` , what is it?
0.0

And then COc1ccc(C2NC(c3ccc(OC)cc3)C([N+](=O)[O-])C(C)(C)C2[N+](=O)[O-])cc1 (centres unmarked) , what is it?
1.0

----------
# measured.on: human ether-à-go-go-related gene (hERG) potassium channel (human)
# run.description: primary screen, population patch clamp on CHO cells stably expressing hERG; higher = less effect of the substance
# Description: Briefly, Chinese hamster ovary (CHO) cells stably expressing the hERG channel were dislodged from tissue culture flasks and dispensed into PPC plates. […] During the recording, background leak currents were estimated by a 100 ms step to -80 mV from an initial holding potential of -70 mV and subtracted from the subsequent current measurement. The campaign was conducted in two phases using slight differences in recording protocol. […]
Hit rate of the full screen: of about 310,000 compounds, about 14,000 (4.5%) showed an effect of 50% or more. Effects have a minus sign here. The entries come from a sample that favours strong results as a whole.
Decision: hERG current change (%, negative = inhibition) at 10uM >= 10% yields yes, all other cases yield no.

Answered cases to consult:
Has `COc1ccc(N/N=C(\C#N)C(=N)N2CCOCC2)cc1` a recorded hERG current change (%, negative = inhibition) at 10uM greater than or equal to 10%?
yes

And then `C=CCN(Cc1ccc(Cl)s1)C(=O)CNC(=O)CNC(=O)c1ccc(Cl)cc1Cl` , what is it?
no

And then `COc1cc(/C=C/C(=O)Nc2nnc(CC(C)C)s2)cc(OC)c1OC` , what is it?
no

Continuing:
Has CCN1CCN(C(c2cccs2)C(C)NC(=O)c2cccc(OC)c2)CC1 (centres unmarked) a recorded hERG current change (%, negative = inhibition) at 10uM greater than or equal to 10%?
no

And then `CCOC(=O)Cc1csc(NC(=O)c2cc(=O)c3ccccc3o2)n1` , what is it?
no

And then `N#C/C(=N\Nc1ccccc1)C(=N)N1CCOCC1` , what is it?
no

And then `CN1CCN(C(=O)CSc2nc(-c3ccco3)cc(C(F)(F)F)n2)CC1` , what is it?
yes

And then `CN(C)c1ccc(-n2cccc2/C=C/[N+](=O)[O-])cc1` , what is it?
yes

----------
# measured.on: human ether-à-go-go-related gene (hERG) potassium channel (human, UniProt Q12809)
# run.description: primary screen, population patch clamp on CHO cells stably expressing hERG; higher = less effect of the substance
Screen size: about 310,000 compounds; about 14,000 (4.5%) showed an effect of 50% or more. The effect is printed as a negative number. What follows is part of a selection rich in strong results, with near analogues and random picks from the rest.
In this section we review reported hERG current change (%, negative = inhibition) at 10uM values for a set of compounds.
Give just the numeric value; % need not be written.

Examples with answers:
Requested field: hERG current change (%, negative = inhibition) at 10uM. Item: `COC(=O)[C@@]1(Cc2ccc(OC)cc2)[C@H]2c3cc(C(=O)N4CCCC4)n(CCO)c3C[C@H]2CN1C(=O)c1ccccc1`
-34.9

And then `COCCn1c(C(=O)N2CCCC2)cc2c1C[C@H]1CN(C(=O)c3ccccc3)[C@@](Cc3ccc(F)cc3)(C(=O)OC)[C@@H]21` , what is it?
-39.3

And then CCOc1ccccc1N1CC(C(=O)NNC(=O)c2cc(OC)c(OC)c(OC)c2)CC1=O (centres unmarked) , what is it?
9

And then `COC(=O)[C@@]1(Cc2ccc(OC)cc2)[C@H]2c3cc(C(=O)N4CCCC4)n(C[C@H](O)CO)c3C[C@H]2CN1C(=O)c1ccccc1` , what is it?
-1.32

Proceeding to the next compound to report its hERG current change (%, negative = inhibition) at 10uM.
Requested field: hERG current change (%, negative = inhibition) at 10uM. Item: COc1ccc(/C(O)=C2/C(=O)C(=O)N(CCN(C)C)C2c2ccc(OC)c(OC)c2)c(C)c1 (centres unmarked)
11
